# study.target: Proteinase-activated receptor 1 (Homo sapiens, UniProt P25116)
# Sequence (P25116 whole entry): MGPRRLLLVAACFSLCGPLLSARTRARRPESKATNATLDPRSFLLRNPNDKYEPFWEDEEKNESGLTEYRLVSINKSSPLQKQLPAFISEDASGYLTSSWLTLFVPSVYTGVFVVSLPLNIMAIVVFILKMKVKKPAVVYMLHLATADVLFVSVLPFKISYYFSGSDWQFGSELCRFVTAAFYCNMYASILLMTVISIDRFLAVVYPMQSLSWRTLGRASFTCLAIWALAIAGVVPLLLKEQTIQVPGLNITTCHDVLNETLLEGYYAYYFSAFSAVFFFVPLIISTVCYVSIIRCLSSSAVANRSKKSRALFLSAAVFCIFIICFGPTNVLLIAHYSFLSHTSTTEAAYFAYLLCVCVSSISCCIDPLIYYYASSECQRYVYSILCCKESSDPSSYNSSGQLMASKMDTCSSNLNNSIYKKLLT
# procedure.details: Inhibition of [3H]S-(p-F-Phe)-Har-L-Har-KY-NH2 binding to thrombin receptor (PAR-1) on membranes from CHRF cells
# Type: cell membranes
Where a SMILES comes first, the peptide text is derived from it. [ ]: non-standard residue; d: D form. Cha = N[C@@H](CC1CCCCC1)C(=O)O; 4Abz = Nc1ccc(C(=O)O)cc1
Can you tell me IC50 for the items I'm about to list?
Numbers only, in µM.

Some entries whose results are on file:
>>> observed_value("N=C(N)NCCC[C@H](NC(=O)[C@H](CC1CCCCC1)NC(=O)c1n[nH]c(NC(=O)/C=C/c2c[nH]c3ccccc23)n1)C(=O)N[C@@H](Cc1ccccc1)C(N)=O")
100
>>> observed_value("N=C(N)NCCC[C@H](NC(=O)[C@H](CC1CCCCC1)NC(=O)c1cc(=O)c2ccccc2o1)C(=O)N[C@@H](Cc1ccccc1)C(N)=O")
1.6
>>> observed_value("N=C(N)NCCC[C@H](NC(=O)[C@H](CC1CCCCC1)NC(=O)c1ccncc1)C(=O)N[C@@H](Cc1ccccc1)C(N)=O")
7
>>> observed_value("N=C(N)NCCC[C@H](NC(=O)[C@H](CC1CCCCC1)NC(=O)c1cccnc1N)C(=O)N[C@@H](Cc1ccccc1)C(N)=O")
2.3
>>> observed_value("N=C(N)NCCC[C@H](NC(=O)[C@H](CC1CCCCC1)NC(=O)c1ccc(N)nc1)C(=O)N[C@@H](Cc1ccccc1)C(N)=O")
2

Provide IC50 for all items below, preserving their order.
1. N=C(N)NCCC[C@H](NC(=O)[C@H](CC1CCCCC1)NC(=O)c1ccc(N)cc1)C(=O)N[C@@H](Cc1ccccc1)C(N)=O (H-[4Abz][Cha]RF-NH2)
2. N=C(N)NCCC[C@H](NC(=O)[C@H](CC1CCCCC1)NC(=O)c1ccoc1)C(=O)N[C@@H](Cc1ccccc1)C(N)=O
3. N=C(N)NCCC[C@H](NC(=O)[C@H](Cc1ccccc1)NC(=O)c1ccc2[nH]cnc2c1)C(=O)N[C@@H](Cc1ccccc1)C(N)=O
4. N=C(N)NCCC[C@H](NC(=O)[C@H](CC1CCCCC1)NC(=O)c1n[nH]c(NC(=O)/C=C/c2cccs2)n1)C(=O)N[C@@H](Cc1ccccc1)C(N)=O
5. N=C(N)NCCC[C@H](NC(=O)[C@H](CC1CCCCC1)NC(=O)c1n[nH]c(NC(=O)/C=C/c2cccc3ccccc23)n1)C(=O)N[C@@H](Cc1ccccc1)C(N)=O
6. N=C(N)NCCC[C@H](NC(=O)[C@H](CC1CCCCC1)NC(=O)c1ccc2c(c1)-c1ccccc1-2)C(=O)N[C@@H](Cc1ccccc1)C(N)=O

Response line:
1. 2.9
2. 25
3. 4
4. 4.4
5. 16
6. 2.4

# per-item lookup of IC50; items listed below
1. N=C(N)NCCC[C@H](NC(=O)[C@H](CC1CCCCC1)NC(=O)c1cnc2ccccc2n1)C(=O)N[C@@H](Cc1ccccc1)C(N)=O
2. N=C(N)NCCC[C@H](NC(=O)[C@H](CC1CCCCC1)NC(=O)c1ccc(Cl)nc1)C(=O)N[C@@H](Cc1ccccc1)C(N)=O
3. N=C(N)NCCC[C@H](NC(=O)[C@H](CC1CCCCC1)NC(=O)/C=C/c1ccccc1)C(=O)N[C@@H](Cc1ccccc1)C(N)=O
4. NCCCC[C@H](NC(=O)[C@H](CC1CCCCC1)NC(=O)c1n[nH]c(N)n1)C(=O)N[C@@H](Cc1ccccc1)C(N)=O

Response line:
[3.1, 2.4, 5, 5.4]
